// data source = patent US20120094909A1

# SYSTEM_NAME: T1, human PCSK9 (proprotein convertase subtilisin kexin type 9) (human, UniProt Q8NBP7 31-692)
# T1 construct: immobilized directly (ProteOn), biotinylated (Octet) or in solution, according to the assay; also called hPCSK9; PCSK9-AF647 (labelled form)
# EXPERIMENT_DESCRIPTION: PCSK9:EGFA FRET, competitor EGFA peptide
pEC50: −log10 of the molar value.
Attribute: pEC50
REPORTED_METRIC: pEC50

binder="2382G04 (designed binder) MGVSDVPRDLEVVAATPTSLLISWDAPAGGGYGYYRITYGETGGNSPVQEFTVPSSKGTATISGLKPGVDYTITVYAVEFDFPGAGYYHRPISINYRTEIDKPSQHHHHHH" reported_metric=pEC50 measured_value=8.54
binder="2382H04 (designed binder) MGVSDVPRDLEVVAATPTSLLISWDAPAAGGYGYYRITYGETGGNSPVQEFTVPSSKGTATISGLKPGVDYTITVYAVEYDFPGAGYYHRPISINYRTEIDKPSQHHHHHH" reported_metric=pEC50 measured_value=8.49
binder="2011H05(V23D) (designed binder) MGVSDVPRDLEVVAATPTSLLISWDPSSHAYGYYRITYGETGGNSPVQEFTVPVGVGTATISGLKPGVDYTITVYAVEYAFEGAGYYHRPISINYRTEIDKPSQHHHHHH" reported_metric=pEC50 measured_value=8.26
binder="2382D03 (designed binder) MGVSDVPRDLEVVAATPTSLLISWDAPADEAYGYYRITYGETGGNSPVQEFTVPVSKGTATISGLKPGVDYTITVYAVEFDFPGAGYYHRPISINYRTEIDKPSQHHHHHH" reported_metric=pEC50 measured_value=8.48
